Tested on: GSC-3 (3#-GSC)
assay_remarks: MTS cell viability assay, glioblastoma stem cells GSC-3 (3#-GSC)
Type: cell-based
experimental_conditions: primary viability screening, 72 hours, MTS; test concentration not stated
assay_readout: Cell viability in 3#-GSC (%)
Response body: numeric value in %, unit text excluded.

compound | Cell viability in 3#-GSC (%)
CCCCCc1cc(O)c2c(c1)OC1(C)CCC3C(CC)C2C31 (stereo not drawn) [Compound 3v] | 30
CCCCCc1cc(OC(=O)CCN2CCOCC2)c2c(c1)OC1(C)CCC3C1C2C3(C)C (stereo not drawn) [Compound 9l] | 32
CCCCCCc1cc(O)c2c(c1)OC1(C)CCC3C1C2C3(C)C (stereo not drawn) [Compound 3f] | 20

Value of Cell viability in 3#-GSC (%) reported for the compound CCCCCc1cc(OC(C)=O)c2c(c1)OC1(C)CCC3C1C2C3(C)C (stereo not drawn) [Compound 9b] is 28

Item: CCCCCc1cc(OC(=O)CC)c2c(c1)OC1(C)CCC3C1C2C3(C)C (stereo not drawn) [Compound 9c] | Cell viability in 3#-GSC (%): 28

Quick note, Cell viability in 3#-GSC (%) for CCCCCc1cc(OC(=O)C(C)CC)c2c(c1)OC1(C)CCC3C1C2C3(C)C (stereo not drawn) [Compound 9a] landed at 52
